Each entry below carries its recorded IC50.
Target: BTK (Homo sapiens (Human), UniProt Q06187)
Sequence (Q06187 whole entry): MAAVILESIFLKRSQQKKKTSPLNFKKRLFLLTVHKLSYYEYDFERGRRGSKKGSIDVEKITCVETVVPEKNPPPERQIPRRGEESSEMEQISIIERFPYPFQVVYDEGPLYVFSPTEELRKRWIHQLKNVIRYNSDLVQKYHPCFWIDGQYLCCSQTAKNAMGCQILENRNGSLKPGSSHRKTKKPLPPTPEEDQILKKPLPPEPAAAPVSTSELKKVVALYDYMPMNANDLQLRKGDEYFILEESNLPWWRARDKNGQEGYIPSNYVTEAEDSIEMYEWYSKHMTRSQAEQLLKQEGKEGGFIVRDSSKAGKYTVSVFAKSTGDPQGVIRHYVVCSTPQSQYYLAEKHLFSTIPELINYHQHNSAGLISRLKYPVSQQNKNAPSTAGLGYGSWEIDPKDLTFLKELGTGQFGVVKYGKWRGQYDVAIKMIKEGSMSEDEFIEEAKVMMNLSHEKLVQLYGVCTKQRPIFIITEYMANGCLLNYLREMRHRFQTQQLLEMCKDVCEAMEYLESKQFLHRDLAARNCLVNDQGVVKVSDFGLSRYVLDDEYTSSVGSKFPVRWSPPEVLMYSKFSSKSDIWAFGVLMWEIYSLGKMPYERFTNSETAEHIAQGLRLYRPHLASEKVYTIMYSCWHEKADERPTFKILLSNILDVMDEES
Assay: In Vitro BTK Kinase Assay: BTK-POLYGAT-LS ASSAY
Type: biochemical
Conditions: fluorescein-labeled polyGAT peptide 100 nM, BTK enzyme 0.25 nM, 30 minutes, TRF
Measurement label: IC50

                        structure_as_smiles                              assay_system  value_reported
0  Cc1cc(-c2ncnc(Nc3cnn(C)c3)n2)ccc1CNC(=O)c1noc(C(C)(C)C)n1  BTK (Homo sapiens (Human), UniProt Q06187)          < 1 nM
1  Cc1c(CNC(=O)c2noc(C(C)(C)CF)n2)ccc(-c2ncnc(Nc3ccn(C)n3)n2)c1F  BTK (Homo sapiens (Human), UniProt Q06187)          < 1 nM
2  Cn1ccc(Nc2ncnc(-c3ccc(CNC(=O)c4nc(C(C)(C)C)no4)c(CC(F)F)c3)n2)n1  BTK (Homo sapiens (Human), UniProt Q06187)      1 to 10 nM
3  Cn1ccc(Nc2ncnc(-c3ccc4c(c3)CN(CC(F)(F)F)CC[C@H]4NC(=O)c3coc(C(C)(C)C)n3)n2)n1  BTK (Homo sapiens (Human), UniProt Q06187)          < 1 nM
4  Cn1cc(Nc2ncnc(-c3ccc4c(c3F)CCCC[C@H]4NC(=O)c3noc(C(C)(C)C)n3)n2)cn1  BTK (Homo sapiens (Human), UniProt Q06187)          < 1 nM
5  Cn1ccc(Nc2ncnc(-c3ccc(CNC(=O)c4noc(C(C)(C)C)n4)c(C(F)(F)F)c3F)n2)n1  BTK (Homo sapiens (Human), UniProt Q06187)      1 to 10 nM
6  Cc1c(CNC(=O)c2cn(C(C)(C)C)nn2)ccc(-c2ncnc(Nc3cnn(C)c3)n2)c1F  BTK (Homo sapiens (Human), UniProt Q06187)          < 1 nM
7  Cc1cc(-c2ncnc(Nc3cnn(C)c3)n2)c(F)cc1CNC(=O)c1noc(C(C)(C)C)n1  BTK (Homo sapiens (Human), UniProt Q06187)          < 1 nM
8  Cc1cc(-c2ncnc(Nc3ccn(C)n3)n2)ccc1CNC(=O)c1nn(C(C)(C)C)cc1F  BTK (Homo sapiens (Human), UniProt Q06187)      1 to 10 nM
